EXPERIMENTAL TARGET: UniProt:P35462
Sequence (P35462 whole entry): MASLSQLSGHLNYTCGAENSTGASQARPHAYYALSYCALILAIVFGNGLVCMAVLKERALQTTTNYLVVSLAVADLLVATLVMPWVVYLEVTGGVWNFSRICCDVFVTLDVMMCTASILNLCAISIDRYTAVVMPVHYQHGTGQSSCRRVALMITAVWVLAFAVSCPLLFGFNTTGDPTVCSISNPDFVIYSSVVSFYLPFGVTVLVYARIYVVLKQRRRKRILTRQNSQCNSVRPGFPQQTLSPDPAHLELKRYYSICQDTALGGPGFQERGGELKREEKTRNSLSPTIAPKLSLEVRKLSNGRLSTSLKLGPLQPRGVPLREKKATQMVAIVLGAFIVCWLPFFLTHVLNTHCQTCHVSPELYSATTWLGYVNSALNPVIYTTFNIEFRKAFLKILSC
READOUT LABEL: pKi
Numbers only, as −log10 of the molar value.

Give recorded pKi. Cc1ccc(C(=O)C2CCN(CC(=O)NC3CCCC3)CC2)cc1
4.96

Turning to the following compound.
Give recorded pKi. Cc1cccc2cc(CNCc3ccccc3)c(Cl)nc12
5.80
